Data origin: patent US12655116B2

Tested on: DIGSA
TEST_NAME: Post-emergence herbicidal action against DIGSA
Format: in vivo, Digitaria sanguinalis
SETTINGS: 20 g/ha
Description: Seeds of monocotyledonous and dicotyledonous weed and crop plants are laid out in sandy loam soil in wood-fiber pots, covered with soil and cultivated in a greenhouse under good growth conditions. 2 to 3 weeks after sowing, the test plants are treated at the one-leaf stage. […]

[
  {
    "COMPOUND": "COCCNC(=O)c1c(C(F)F)ccc(C(=O)Nc2nnc(C)o2)c1Cl [Example 6-262]",
    "Post-emergence action against DIGSA / %": 90
  },
  {
    "COMPOUND": "CCn1nnnc1NC(=O)c1ccc(C(F)F)c(C(=O)NC)c1Br [Example 2-225]",
    "Post-emergence action against DIGSA / %": 100
  },
  {
    "COMPOUND": "CCn1nnnc1NC(=O)c1ccc(C(F)F)c(C(=O)NCC(F)F)c1Br [Example 2-230]",
    "Post-emergence action against DIGSA / %": 90
  },
  {
    "COMPOUND": "Cn1nnnc1NC(=O)c1ccc(C(F)(F)F)c(C(=O)NCC2CC2)c1Cl [Example 1-132]",
    "Post-emergence action against DIGSA / %": 90
  },
  {
    "COMPOUND": "CCn1nnnc1NC(=O)c1ccc(C(F)(F)F)c(C(=O)NC(C)C2CC2)c1C1CC1 (centres unmarked) [Example 2-292]",
    "Post-emergence action against DIGSA / %": 90
  },
  {
    "COMPOUND": "Cn1nnnc1NC(=O)c1ccc(C(F)(F)F)c(C(=O)NCC2CC2)c1Br [Example 1-210]",
    "Post-emergence action against DIGSA / %": 90
  },
  {
    "COMPOUND": "CCn1nnnc1NC(=O)c1ccc(C(F)(F)F)c(C(=O)NC(C)C2CC2)c1Cl (centres unmarked) [Example 2-135]",
    "Post-emergence action against DIGSA / %": 80
  },
  {
    "COMPOUND": "CCNC(=O)c1c(C(F)F)ccc(C(=O)Nc2nnnn2CC)c1C1CC1 [Example 2-305]",
    "Post-emergence action against DIGSA / %": 90
  }
]

* * *

System: SETVI
TEST_NAME: Post-emergence herbicidal action against SETVI
Type: in vivo, Setaria viridis
SETTINGS: dosage 5 g/ha
Measured Post-emergence action against SETVI in % by item

[
  {
    "COMPOUND": "CCn1nnnc1NC(=O)c1ccc(C(F)(F)F)c(C(=O)NCC(F)(F)F)c1Cl [Example 2-133]",
    "Post-emergence action against SETVI in % / %": 80
  },
  {
    "COMPOUND": "CCn1nnnc1NC(=O)c1ccc(C(F)(F)F)c(C(=O)NCC(F)F)c1SC [Example 2-86]",
    "Post-emergence action against SETVI in % / %": 100
  },
  {
    "COMPOUND": "CCc1c(C(=O)Nc2nnnn2CC)ccc(C(F)(F)F)c1C(=O)NC1CC1 [Example 2-273]",
    "Post-emergence action against SETVI in % / %": 80
  },
  {
    "COMPOUND": "Cc1c(C(=O)Nc2nnnn2C)ccc(C(F)(F)F)c1C(=O)NCC1CC1 [Example 1-28]",
    "Post-emergence action against SETVI in % / %": 80
  },
  {
    "COMPOUND": "NC(=O)c1c(C(F)(F)F)ccc(C(=O)Nc2nnco2)c1Cl [Example 5-253]",
    "Post-emergence action against SETVI in % / %": 80
  },
  {
    "COMPOUND": "CCc1c(C(=O)Nc2nnnn2CC)ccc(C(F)(F)F)c1C(=O)NC [Example 2-271]",
    "Post-emergence action against SETVI in % / %": 100
  }
]
